Target: Sentrin-specific protease 7 (Homo sapiens, UniProt Q9BQF6)
Sequence (Q9BQF6 whole entry): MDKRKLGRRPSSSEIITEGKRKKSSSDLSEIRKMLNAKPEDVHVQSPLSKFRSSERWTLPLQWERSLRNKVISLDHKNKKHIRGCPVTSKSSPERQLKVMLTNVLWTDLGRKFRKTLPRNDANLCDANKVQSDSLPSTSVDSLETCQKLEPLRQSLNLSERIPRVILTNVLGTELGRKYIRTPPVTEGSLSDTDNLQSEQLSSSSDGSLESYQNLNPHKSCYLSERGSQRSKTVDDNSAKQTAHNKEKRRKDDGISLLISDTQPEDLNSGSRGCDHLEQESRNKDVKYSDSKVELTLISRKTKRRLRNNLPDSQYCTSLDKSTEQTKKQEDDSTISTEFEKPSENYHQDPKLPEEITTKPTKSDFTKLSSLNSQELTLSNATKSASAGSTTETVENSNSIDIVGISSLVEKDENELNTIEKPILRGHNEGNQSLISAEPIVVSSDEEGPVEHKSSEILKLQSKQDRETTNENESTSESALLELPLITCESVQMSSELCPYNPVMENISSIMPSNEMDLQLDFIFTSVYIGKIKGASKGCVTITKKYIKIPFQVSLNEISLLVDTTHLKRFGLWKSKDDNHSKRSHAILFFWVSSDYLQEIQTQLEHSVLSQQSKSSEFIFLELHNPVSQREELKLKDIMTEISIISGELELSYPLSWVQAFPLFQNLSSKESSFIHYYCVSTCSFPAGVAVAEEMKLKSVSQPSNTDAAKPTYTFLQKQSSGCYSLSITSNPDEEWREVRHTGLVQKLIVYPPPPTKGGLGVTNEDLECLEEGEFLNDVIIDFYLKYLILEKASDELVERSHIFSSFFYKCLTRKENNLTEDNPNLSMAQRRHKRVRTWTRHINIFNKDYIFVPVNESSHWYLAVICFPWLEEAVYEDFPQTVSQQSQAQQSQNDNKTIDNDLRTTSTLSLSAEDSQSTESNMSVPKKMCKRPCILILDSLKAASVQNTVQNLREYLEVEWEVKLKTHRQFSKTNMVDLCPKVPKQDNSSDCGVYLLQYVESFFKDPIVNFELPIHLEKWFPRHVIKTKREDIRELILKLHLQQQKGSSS
Assay: inhibition of human SENP7 cleavage activity – biochemical, luminescence, SAR follow-up (AID 504497)
Format: functional
The source made the active and inactive calls. Rule as the data show it: actives have a measured IC50 and inactives only a lower limit.
Readout: IC50

Answered cases to consult:
{"Item smiles": "O=C(NN=c1c(=O)c2ccccc2c1=O)c1ccccc1", "IC50": "12 µM (active)"}
{"Item smiles": "Fc1ccc(/C=C/c2noc(-c3ccccc3I)n2)cc1", "IC50": "6.4 µM (active)"}
{"Item smiles": "CSc1nc2ccc(NC(=O)c3cc4ccccc4o3)cc2s1", "IC50": "0.896 µM (active)"}

Shifting focus to the compound that follows.
INPUT: // lookup IC50 for "Oc1ccccc1-c1nc(/C=C/c2ccccc2)no1"
OUTPUT: 2.8 µM (active)

Measured values drawn from ChEMBL document CHEMBL1201862 for this set.
